Reference for the values: patent US20230286983A1

half-life values, listed per item
experiment: Liver microsome stability, mouse; type: in vitro ADME; conditions: mouse, liver microsomes, Mouse liver microsomes (*), Table 11a; read-out: Rodent liver microsomes t1/2

[
  {
    "MOLECULE": "Cc1cc(Nc2cc(N)ncn2)c(=O)n2c1C(=O)NC21CCC(O)CC1 (stereo not drawn)",
    "half-life, h": 6.55
  },
  {
    "MOLECULE": "Cc1cc(Nc2cc(NC(=O)CN3CCOCC3)ncn2)c(=O)n2c1C(=O)NC21CCCCC1",
    "half-life, h": 2.65
  },
  {
    "MOLECULE": "Cc1cc(Nc2cc(NCCNS(C)(=O)=O)ncn2)c(=O)n2c1C(=O)NC21CCCCC1",
    "half-life, h": 9.25
  }
]
